Tested on: SNB-75 CNS
Protocol details: NCI tumour cell line growth inhibition, 48 h; in the data active = GI50 below about 0.43 µM; inactive = the rest
The reply should name one outcome from active, inactive

Field: example entries. Status: answers known.
Compound	Label value
COc1cc2cc(Oc3ccc(NC(=O)c4ccc(Cl)c(C(F)(F)F)c4)cc3)c(C)nc2cc1OC	inactive
Fc1ccc(Nc2nc(NCCNc3ccnc4cc(Cl)ccc34)nc(N3CCOCC3)n2)cc1	inactive

Outcome logged for Nc1nc(Nc2cccc(F)c2)nc2ccccc12 in this assay: inactive

Outcome logged for CCOC(=O)N1CCN(S(=O)(=O)c2oc(-c3ccc(Cl)cc3)nc2C#N)CC1 in this assay: inactive

Outcome logged for C[C@H](CS(C)(=O)=O)Nc1ncc2cc(Oc3ccc(F)cc3F)c(=O)n(C)c2n1 in this assay: inactive

Outcome logged for Fc1ccc(Nc2nccc(-c3c(-c4ccc(C(F)(F)F)cc4)nn4ncccc34)n2)cc1F in this assay: inactive

Outcome logged for NCc1ccc(-n2c(-c3nonc3N)nc3cnccc32)cc1 in this assay: active

Outcome logged for CCN1C(=O)N(CC)C2C1NN=c1s/c(=C3\C(=O)N(C)c4ccccc43)c(=O)n12 (stereo not given) in this assay: active

Outcome logged for Cc1c(C)c2ccc(OC/C=C3\CCC(=O)O3)cc2oc1=O in this assay: inactive

Outcome logged for CC[CH2][Pb]([CH2]CC)([CH2]CC)[NH]S(=O)(=O)c1ccc(C)cc1 in this assay: active

The values you see were collected from PubChem BioAssay (NCI).
